Measured values drawn from ChEMBL document CHEMBL1126640 for this set.

Listed below: IC50 values for each entry.
# tgt: Prothrombin (Bos taurus, UniProt P00735)
# protocol.text: Inhibition of thrombin with benzoyl-Phe-Val-arginine- p-nitroanilide as substrate
Where a SMILES comes first, the peptide text is derived from it.
quantity: IC50 (µM)

>>> measurement("CC(=O)N[C@@H](CC(C)C)C(=O)N[C@H](C(=O)N[C@H](C=O)CCCCN)C(C)C (Ac-Leu-Val-Lys-aldehyde)")
140
>>> measurement("CC(=O)N[C@H](C(=O)N[C@@H](CC(C)C)C(=O)N[C@H](C=O)CCCN=C(N)N)C(C)C (Ac-Val-Leu-Arg-aldehyde)")
170
>>> measurement("CC(=O)N[C@@H](Cc1ccccc1)C(=O)N[C@H](C(=O)N[C@H](C=O)CCCN=C(N)N)C(C)C (Ac-Phe-Val-Arg-aldehyde)")
1.8
>>> measurement("CC(=O)N[C@@H](Cc1ccc(O)cc1)C(=O)N[C@@H](CC(C)C)C(=O)N[C@H](C=O)CCCN=C(N)N (Ac-Tyr-Leu-Arg-aldehyde)")
35
>>> measurement("CC[C@H](C)[C@H](NC(C)=O)C(=O)N[C@@H](CC(C)C)C(=O)N[C@H](C=O)CCCN=C(N)N (Ac-Ile-Leu-Arg-aldehyde)")
94
>>> measurement("CC(=O)N[C@@H](Cc1ccccc1)C(=O)N[C@@H](CC(C)C)C(=O)N[C@H](C=O)CCCN=C(N)N (Ac-Phe-Leu-Arg-aldehyde)")
71
>>> measurement("CC(=O)N[C@@H](CC(C)C)C(=O)N[C@@H](CC(C)C)C(=O)N[C@H](C=O)CCCNC(=N)N")
12

----------
# tgt: Plasma kallikrein (Homo sapiens, UniProt P03952)
# Sequence (P03952 20-390 limits assumed): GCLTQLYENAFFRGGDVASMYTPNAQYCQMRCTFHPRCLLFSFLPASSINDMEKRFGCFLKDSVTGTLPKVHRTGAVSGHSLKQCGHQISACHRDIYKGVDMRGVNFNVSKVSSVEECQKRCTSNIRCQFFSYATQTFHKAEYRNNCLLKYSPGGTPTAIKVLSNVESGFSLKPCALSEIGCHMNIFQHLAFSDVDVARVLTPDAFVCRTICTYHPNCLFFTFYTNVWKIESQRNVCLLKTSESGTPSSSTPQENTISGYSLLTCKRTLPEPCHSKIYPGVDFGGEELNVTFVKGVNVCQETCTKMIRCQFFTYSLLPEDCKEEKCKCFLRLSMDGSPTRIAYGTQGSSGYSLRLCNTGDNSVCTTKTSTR
# Sequence (P03952 391-638 limits assumed): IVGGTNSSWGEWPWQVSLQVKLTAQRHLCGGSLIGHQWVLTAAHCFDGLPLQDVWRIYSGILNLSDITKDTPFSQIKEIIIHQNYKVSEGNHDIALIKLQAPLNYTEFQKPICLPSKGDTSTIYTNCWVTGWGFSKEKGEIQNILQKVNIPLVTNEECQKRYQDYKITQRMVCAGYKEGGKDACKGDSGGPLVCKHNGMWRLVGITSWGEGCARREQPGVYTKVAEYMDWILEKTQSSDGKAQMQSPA
# protocol.text: Inhibition of kallikrein with benzoyl-L-arginine ethyl ester as substrate
Where a SMILES comes first, the peptide text is derived from it.
quantity: IC50 (µM)

>>> measurement("CC[C@H](C)[C@H](NC(=O)[C@H](CC(C)C)NC(C)=O)C(=O)N[C@H](C=O)CCCN=C(N)N (Ac-Leu-Ile-Arg-aldehyde)")
35
>>> measurement("CC(=O)N[C@@H](Cc1ccccc1)C(=O)N[C@H](C(=O)N[C@H](C=O)CCCN=C(N)N)C(C)C (Ac-Phe-Val-Arg-aldehyde)")
28
>>> measurement("CC[C@H](C)[C@H](NC(C)=O)C(=O)N[C@@H](CC(C)C)C(=O)N[C@H](C=O)CCCN=C(N)N (Ac-Ile-Leu-Arg-aldehyde)")
54
>>> measurement("CC(=O)N[C@H](C(=O)N[C@@H](CC(C)C)C(=O)N[C@H](C=O)CCCN=C(N)N)C(C)C (Ac-Val-Leu-Arg-aldehyde)")
19

----------
Listed below: IC50 values for each entry.
# tgt: Plasma kallikrein (Homo sapiens)
# protocol.text: Inhibition of kallikrein with benzoyl-L-arginine ethyl ester as substrate
Where a SMILES comes first, the peptide text is derived from it.
quantity: IC50 (µM)

>>> measurement("CC(=O)N[C@@H](CC(C)C)C(=O)N[C@H](C(=O)N[C@H](C=O)CCCN=C(N)N)C(C)C (Ac-Leu-Val-Arg-aldehyde)")
16
>>> measurement("CC(=O)N[C@@H](Cc1ccc(O)cc1)C(=O)N[C@@H](CC(C)C)C(=O)N[C@H](C=O)CCCN=C(N)N (Ac-Tyr-Leu-Arg-aldehyde)")
26
>>> measurement("CC(=O)N[C@@H](Cc1ccccc1)C(=O)N[C@@H](CC(C)C)C(=O)N[C@H](C=O)CCCN=C(N)N (Ac-Phe-Leu-Arg-aldehyde)")
16
>>> measurement("CC(=O)N[C@@H](CC(C)C)C(=O)N[C@@H](Cc1ccc(O)cc1)C(=O)N[C@H](C=O)CCCN=C(N)N (Ac-Leu-Tyr-Arg-aldehyde)")
25
>>> measurement("CC(=O)N[C@@H](CC(C)C)C(=O)N[C@@H](CC(C)C)C(=O)N[C@H](C=O)CCCNC(=N)N")
40
>>> measurement("CC(=O)N[C@@H](CC(C)C)C(=O)N[C@@H](Cc1ccccc1)C(=O)N[C@H](C=O)CCCN=C(N)N (Ac-Leu-Phe-Arg-aldehyde)")
41

----------
Listed below: IC50 values for each entry.
# tgt: Prothrombin (Bos taurus, UniProt P00735)
# protocol.text: Inhibition of thrombin with benzoyl-Phe-Val-arginine- p-nitroanilide as substrate
Where a SMILES comes first, the peptide text is derived from it.
quantity: IC50 (µM)

>>> measurement("CC[C@H](C)[C@H](NC(=O)[C@H](CC(C)C)NC(C)=O)C(=O)N[C@H](C=O)CCCN=C(N)N (Ac-Leu-Ile-Arg-aldehyde)")
18
>>> measurement("CC(=O)N[C@@H](CC(C)C)C(=O)N[C@@H](Cc1ccc(O)cc1)C(=O)N[C@H](C=O)CCCN=C(N)N (Ac-Leu-Tyr-Arg-aldehyde)")
66
>>> measurement("CC(=O)N[C@@H](CC(C)C)C(=O)N[C@@H](Cc1ccccc1)C(=O)N[C@H](C=O)CCCN=C(N)N (Ac-Leu-Phe-Arg-aldehyde)")
8.2

----------
# tgt: Serine protease 1 (Bos taurus)
# Sequence (P00760 whole entry): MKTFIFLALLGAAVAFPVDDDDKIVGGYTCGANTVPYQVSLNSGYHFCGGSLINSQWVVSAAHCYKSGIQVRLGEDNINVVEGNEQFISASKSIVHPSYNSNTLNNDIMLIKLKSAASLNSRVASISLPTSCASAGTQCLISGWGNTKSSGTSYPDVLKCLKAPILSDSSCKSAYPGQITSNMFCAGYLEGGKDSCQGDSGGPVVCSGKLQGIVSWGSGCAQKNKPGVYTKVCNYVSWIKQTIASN
# protocol.text: Inhibition of trypsin with benzoyl-L-arginine ethyl ester as substrate
Where a SMILES comes first, the peptide text is derived from it.
quantity: IC50 (µM)

>>> measurement("CC(=O)N[C@@H](Cc1ccccc1)C(=O)N[C@@H](CC(C)C)C(=O)N[C@H](C=O)CCCN=C(N)N (Ac-Phe-Leu-Arg-aldehyde)")
37
>>> measurement("CC[C@H](C)[C@H](NC(=O)[C@H](CC(C)C)NC(C)=O)C(=O)N[C@H](C=O)CCCN=C(N)N (Ac-Leu-Ile-Arg-aldehyde)")
9.1
>>> measurement("CC(=O)N[C@H](C(=O)N[C@@H](CC(C)C)C(=O)N[C@H](C=O)CCCN=C(N)N)C(C)C (Ac-Val-Leu-Arg-aldehyde)")
130
>>> measurement("CC(=O)N[C@@H](CC(C)C)C(=O)N[C@H](C(=O)N[C@H](C=O)CCCCN)C(C)C (Ac-Leu-Val-Lys-aldehyde)")
45
>>> measurement("CC(=O)N[C@@H](Cc1ccccc1)C(=O)N[C@H](C(=O)N[C@H](C=O)CCCN=C(N)N)C(C)C (Ac-Phe-Val-Arg-aldehyde)")
12
>>> measurement("CC(=O)N[C@@H](CC(C)C)C(=O)N[C@@H](CC(C)C)C(=O)N[C@H](C=O)CCCNC(=N)N")
8.1

----------
# tgt: Plasma kallikrein (Homo sapiens, UniProt P03952)
# protocol.text: Inhibition of kallikrein with benzoyl-L-arginine ethyl ester as substrate; Not significantly active
Where a SMILES comes first, the peptide text is derived from it.
quantity: IC50

>>> measurement("CC(=O)N[C@H](C(=O)N[C@@H](CC(C)C)C(=O)N[C@H](C=O)CCCCN)C(C)C (Ac-Val-Leu-Lys-aldehyde)")
"Not Active"
>>> measurement("CC(=O)N[C@@H](CC(C)C)C(=O)N[C@@H](CC(C)C)C(=O)N[C@H](C=O)CCCCN (Ac-Leu-Leu-Lys-aldehyde)")
"Not Active"
>>> measurement("CC[C@H](C)[C@H](NC(C)=O)C(=O)N[C@@H](CC(C)C)C(=O)N[C@H](C=O)CCCCN (Ac-Ile-Leu-Lys-aldehyde)")
"Not Active"
>>> measurement("CC(=O)N[C@@H](Cc1ccccc1)C(=O)N[C@@H](CC(C)C)C(=O)N[C@H](C=O)CCCCN (Ac-Phe-Leu-Lys-aldehyde)")
"Not Active"
>>> measurement("CC(=O)N[C@@H](CC(C)C)C(=O)N[C@@H](Cc1ccccc1)C(=O)N[C@H](C=O)CCCCN (Ac-Leu-Phe-Lys-aldehyde)")
"Not Active"
>>> measurement("CC(=O)N[C@@H](CC(C)C)C(=O)N[C@H](C(=O)N[C@H](C=O)CCCCN)C(C)C (Ac-Leu-Val-Lys-aldehyde)")
"Not Active"

----------
# tgt: Cathepsin B (Bos taurus)
# protocol.text: Inhibition of cathepsin B with Cbz-L-lysine-p-nitrophenyl ester as substrate
pIC50: −log10 of the molar value. Where a SMILES comes first, the peptide text is derived from it.
Each entry falls in a class defined on pIC50; the bands are range A = under 5, range B = from 5 up to 7, range C = 7 and over

>>> group("CC[C@H](C)[C@H](NC(C)=O)C(=O)N[C@@H](CC(C)C)C(=O)N[C@H](C=O)CCCCN (Ac-Ile-Leu-Lys-aldehyde)")
"range B"
>>> group("CC(=O)N[C@H](C(=O)N[C@@H](CC(C)C)C(=O)N[C@H](C=O)CCCN=C(N)N)C(C)C (Ac-Val-Leu-Arg-aldehyde)")
"range A"
>>> group("CC(=O)N[C@@H](CC(C)C)C(=O)N[C@H](C(=O)N[C@H](C=O)CCCCN)C(C)C (Ac-Leu-Val-Lys-aldehyde)")
"range C"
>>> group("CC(=O)N[C@@H](Cc1ccccc1)C(=O)N[C@@H](CC(C)C)C(=O)N[C@H](C=O)CCCCN (Ac-Phe-Leu-Lys-aldehyde)")
"range A"
>>> group("CC(=O)N[C@@H](Cc1ccc(O)cc1)C(=O)N[C@@H](CC(C)C)C(=O)N[C@H](C=O)CCCN=C(N)N (Ac-Tyr-Leu-Arg-aldehyde)")
"range A"
>>> group("CC(=O)N[C@@H](CC(C)C)C(=O)N[C@@H](Cc1ccccc1)C(=O)N[C@H](C=O)CCCN=C(N)N (Ac-Leu-Phe-Arg-aldehyde)")
"range B"
>>> group("CC(=O)N[C@H](C(=O)N[C@@H](CC(C)C)C(=O)N[C@H](C=O)CCCCN)C(C)C (Ac-Val-Leu-Lys-aldehyde)")
"range A"
>>> group("CC(=O)N[C@@H](Cc1ccccc1)C(=O)N[C@@H](CC(C)C)C(=O)N[C@H](C=O)CCCN=C(N)N (Ac-Phe-Leu-Arg-aldehyde)")
"range B"
>>> group("CC(=O)N[C@@H](Cc1ccccc1)C(=O)N[C@H](C(=O)N[C@H](C=O)CCCN=C(N)N)C(C)C (Ac-Phe-Val-Arg-aldehyde)")
"range C"
>>> group("CC(=O)N[C@@H](CC(C)C)C(=O)N[C@@H](CC(C)C)C(=O)N[C@H](C=O)CCCNC(=N)N [LEUPEPTIN]")
"range B"
>>> group("CC(=O)N[C@@H](CC(C)C)C(=O)N[C@H](C(=O)N[C@H](C=O)CCCN=C(N)N)C(C)C (Ac-Leu-Val-Arg-aldehyde)")
"range A"
>>> group("CC(=O)N[C@@H](CC(C)C)C(=O)N[C@@H](Cc1ccc(O)cc1)C(=O)N[C@H](C=O)CCCN=C(N)N (Ac-Leu-Tyr-Arg-aldehyde)")
"range B"
